For reference, MIC measured on Escherichia coli K-12 R-5:
propertyMeasured: MIC (µg/mL)

>  <chemicalSmiles>
NC[C@@H]1CC[C@@H](N)[C@@H](O[C@H]2[C@H](O)[C@@H](O)[C@H](N)C[C@@H]2N)O1

>  <readoutUnits>
µg/mL

>  <inequalityOperator>
=

>  <recordedMeasurement>
50

$$$$
>  <chemicalSmiles>
NC[C@@H]1CC[C@@H](N)[C@@H](O[C@H]2[C@H](O[C@@H]3O[C@H](CO)[C@@H](O)[C@H]3O)[C@@H](O)[C@H](N)C[C@@H]2N)O1

>  <readoutUnits>
µg/mL

>  <inequalityOperator>
=

>  <recordedMeasurement>
100

$$$$
>  <chemicalSmiles>
NC[C@H]1O[C@H](O[C@H]2[C@H](O[C@@H]3O[C@H](CO)[C@@H](O)[C@H]3O)[C@@H](O)[C@H](N)C[C@@H]2N)[C@H](N)[C@@H](O)[C@@H]1O

>  <readoutUnits>
µg/mL

>  <inequalityOperator>
=

>  <recordedMeasurement>
50

$$$$
>  <chemicalSmiles>
NC[C@H]1O[C@H](O[C@H]2[C@H](O)[C@@H](O[C@H]3O[C@H](CO)[C@@H](O)[C@H](N)[C@H]3O)[C@H](N)C[C@@H]2N)[C@H](N)[C@@H](O)[C@@H]1O

>  <readoutUnits>
µg/mL

>  <inequalityOperator>
=

>  <recordedMeasurement>
1.56

$$$$
>  <chemicalSmiles>
NCC[C@H](O)C(=O)N[C@@H]1C[C@H](N)[C@@H](O[C@H]2O[C@H](CN)CC[C@H]2N)[C@H](O)[C@H]1O

>  <readoutUnits>
µg/mL

>  <inequalityOperator>
=

>  <recordedMeasurement>
50

$$$$
>  <chemicalSmiles>
NCC[C@H](O)C(=O)N[C@@H]1C[C@H](N)[C@@H](O[C@H]2O[C@H](CN)[C@@H](O)[C@H](O)[C@H]2N)[C@H](O)[C@H]1O[C@H]1O[C@H](CO)[C@@H](O)[C@H](N)[C@H]1O

>  <readoutUnits>
µg/mL

>  <inequalityOperator>
=

>  <recordedMeasurement>
0.78

$$$$
>  <chemicalSmiles>
NC[C@H]1O[C@H](O[C@H]2[C@H](O)[C@@H](O)[C@H](N)C[C@@H]2N)[C@H](N)[C@@H](O)[C@@H]1O

>  <readoutUnits>
µg/mL

>  <inequalityOperator>
>

>  <recordedMeasurement>
100

$$$$
>  <chemicalSmiles>
NCC[C@H](O)C(=O)N[C@@H]1C[C@H](N)[C@@H](O[C@H]2O[C@H](CN)[C@@H](O)[C@H](O)[C@H]2N)[C@H](O[C@@H]2O[C@H](CO)[C@@H](O)[C@H]2O)[C@H]1O

>  <readoutUnits>
µg/mL

>  <inequalityOperator>
=

>  <recordedMeasurement>
6.25

$$$$
>  <chemicalSmiles>
NCC[C@H](O)C(=O)N[C@@H]1C[C@H](N)[C@@H](O[C@H]2O[C@H](CN)CC[C@H]2N)[C@H](O[C@@H]2O[C@H](CO)[C@@H](O)[C@H]2O)[C@H]1O

>  <readoutUnits>
µg/mL

>  <inequalityOperator>
=

>  <recordedMeasurement>
6.25

$$$$

---

Test system: Proteus rettgeri GN 311
Could you mark each record Met if its MIC falls strictly under 10 µg/mL, and Not met if it equals or exceeds it?

>  <chemicalSmiles>
NCC[C@H](O)C(=O)N[C@@H]1C[C@H](N)[C@@H](O[C@H]2O[C@H](CN)[C@@H](O)[C@H](O)[C@H]2N)[C@H](O[C@@H]2O[C@H](CO)[C@@H](O)[C@H]2O)[C@H]1O

>  <categoryLabel>
Met

$$$$
>  <chemicalSmiles>
NC[C@H]1O[C@H](O[C@H]2[C@H](O[C@@H]3O[C@H](CO)[C@@H](O)[C@H]3O)[C@@H](O)[C@H](N)C[C@@H]2N)[C@H](N)[C@@H](O)[C@@H]1O

>  <categoryLabel>
Not met

$$$$
>  <chemicalSmiles>
NC[C@@H]1CC[C@@H](N)[C@@H](O[C@H]2[C@H](O)[C@@H](O)[C@H](N)C[C@@H]2N)O1

>  <categoryLabel>
Not met

$$$$
>  <chemicalSmiles>
NC[C@@H]1CC[C@@H](N)[C@@H](O[C@H]2[C@H](O[C@@H]3O[C@H](CO)[C@@H](O)[C@H]3O)[C@@H](O)[C@H](N)C[C@@H]2N)O1

>  <categoryLabel>
Met

$$$$
>  <chemicalSmiles>
NCC[C@H](O)C(=O)N[C@@H]1C[C@H](N)[C@@H](O[C@H]2O[C@H](CN)CC[C@H]2N)[C@H](O[C@@H]2O[C@H](CO)[C@@H](O)[C@H]2O)[C@H]1O

>  <categoryLabel>
Not met

$$$$
>  <chemicalSmiles>
NC[C@H]1O[C@H](O[C@H]2[C@H](O)[C@@H](O)[C@H](N)C[C@@H]2N)[C@H](N)[C@@H](O)[C@@H]1O

>  <categoryLabel>
Not met

$$$$
>  <chemicalSmiles>
NCC[C@H](O)C(=O)N[C@@H]1C[C@H](N)[C@@H](O[C@H]2O[C@H](CN)CC[C@H]2N)[C@H](O)[C@H]1O

>  <categoryLabel>
Not met

$$$$

---

Tested on: Pseudomonas aeruginosa 99
Experiment: Minimal inhibitory concentration, agar dilution streak method
Assay type: cell-based
Conditions: nutrient agar, 37° C, 18 hours, read-out: Minimal inhibitory concentration
# MIC values compiled below
propertyMeasured: MIC (µg/mL)

>  <chemicalSmiles>
NC[C@@H]1CC[C@@H](N)[C@@H](O[C@H]2[C@H](O)[C@@H](O)[C@H](N)C[C@@H]2N)O1

>  <measurementTarget>
Pseudomonas aeruginosa 99

>  <inequalityOperator>
=

>  <recordedMeasurement>
50

$$$$
>  <chemicalSmiles>
NC[C@H]1O[C@H](O[C@H]2[C@H](O[C@@H]3O[C@H](CO)[C@@H](O)[C@H]3O)[C@@H](O)[C@H](N)C[C@@H]2N)[C@H](N)[C@@H](O)[C@@H]1O

>  <measurementTarget>
Pseudomonas aeruginosa 99

>  <inequalityOperator>
>

>  <recordedMeasurement>
100

$$$$
>  <chemicalSmiles>
NCC[C@H](O)C(=O)N[C@@H]1C[C@H](N)[C@@H](O[C@H]2O[C@H](CN)CC[C@H]2N)[C@H](O)[C@H]1O

>  <measurementTarget>
Pseudomonas aeruginosa 99

>  <inequalityOperator>
=

>  <recordedMeasurement>
25

$$$$
>  <chemicalSmiles>
NCC[C@H](O)C(=O)N[C@@H]1C[C@H](N)[C@@H](O[C@H]2O[C@H](CN)CC[C@H]2N)[C@H](O[C@@H]2O[C@H](CO)[C@@H](O)[C@H]2O)[C@H]1O

>  <measurementTarget>
Pseudomonas aeruginosa 99

>  <inequalityOperator>
=

>  <recordedMeasurement>
25

$$$$
>  <chemicalSmiles>
NCC[C@H](O)C(=O)N[C@@H]1C[C@H](N)[C@@H](O[C@H]2O[C@H](CN)[C@@H](O)[C@H](O)[C@H]2N)[C@H](O)[C@H]1O[C@H]1O[C@H](CO)[C@@H](O)[C@H](N)[C@H]1O

>  <measurementTarget>
Pseudomonas aeruginosa 99

>  <inequalityOperator>
=

>  <recordedMeasurement>
25

$$$$
>  <chemicalSmiles>
NC[C@H]1O[C@H](O[C@H]2[C@H](O)[C@@H](O)[C@H](N)C[C@@H]2N)[C@H](N)[C@@H](O)[C@@H]1O

>  <measurementTarget>
Pseudomonas aeruginosa 99

>  <inequalityOperator>
>

>  <recordedMeasurement>
100

$$$$
>  <chemicalSmiles>
NC[C@@H]1CC[C@@H](N)[C@@H](O[C@H]2[C@H](O[C@@H]3O[C@H](CO)[C@@H](O)[C@H]3O)[C@@H](O)[C@H](N)C[C@@H]2N)O1

>  <measurementTarget>
Pseudomonas aeruginosa 99

>  <inequalityOperator>
=

>  <recordedMeasurement>
50

$$$$
>  <chemicalSmiles>
NC[C@H]1O[C@H](O[C@H]2[C@H](O)[C@@H](O[C@H]3O[C@H](CO)[C@@H](O)[C@H](N)[C@H]3O)[C@H](N)C[C@@H]2N)[C@H](N)[C@@H](O)[C@@H]1O

>  <measurementTarget>
Pseudomonas aeruginosa 99

>  <inequalityOperator>
>

>  <recordedMeasurement>
100

$$$$
>  <chemicalSmiles>
NCC[C@H](O)C(=O)N[C@@H]1C[C@H](N)[C@@H](O[C@H]2O[C@H](CN)[C@@H](O)[C@H](O)[C@H]2N)[C@H](O[C@@H]2O[C@H](CO)[C@@H](O)[C@H]2O)[C@H]1O

>  <measurementTarget>
Pseudomonas aeruginosa 99

>  <inequalityOperator>
=

>  <recordedMeasurement>
50

$$$$

---

# MIC values compiled below
System: Escherichia coli K-12 C 600 R 135

>  <molecule>
NC[C@@H]1CC[C@@H](N)[C@@H](O[C@H]2[C@H](O[C@@H]3O[C@H](CO)[C@@H](O)[C@H]3O)[C@@H](O)[C@H](N)C[C@@H]2N)O1 [3',4'-dideoxyribostamycin]

>  <MIC>
3.12 µg/mL

$$$$
>  <molecule>
NCC[C@H](O)C(=O)N[C@@H]1C[C@H](N)[C@@H](O[C@H]2O[C@H](CN)[C@@H](O)[C@H](O)[C@H]2N)[C@H](O[C@@H]2O[C@H](CO)[C@@H](O)[C@H]2O)[C@H]1O [Butirosin B]

>  <MIC>
0.78 µg/mL

$$$$
>  <molecule>
NC[C@@H]1CC[C@@H](N)[C@@H](O[C@H]2[C@H](O)[C@@H](O)[C@H](N)C[C@@H]2N)O1 [3',4'-dideoxyneamine]

>  <MIC>
12.5 µg/mL

$$$$
>  <molecule>
NC[C@H]1O[C@H](O[C@H]2[C@H](O)[C@@H](O)[C@H](N)C[C@@H]2N)[C@H](N)[C@@H](O)[C@@H]1O [Neamine, neamine]

>  <MIC>
12.5 µg/mL

$$$$
>  <molecule>
NC[C@H]1O[C@H](O[C@H]2[C@H](O[C@@H]3O[C@H](CO)[C@@H](O)[C@H]3O)[C@@H](O)[C@H](N)C[C@@H]2N)[C@H](N)[C@@H](O)[C@@H]1O [Ribostamycin, 5-0-β-D-ribofuranosyl-neamine]

>  <MIC>
1.56 µg/mL

$$$$
>  <molecule>
NCC[C@H](O)C(=O)N[C@@H]1C[C@H](N)[C@@H](O[C@H]2O[C@H](CN)CC[C@H]2N)[C@H](O[C@@H]2O[C@H](CO)[C@@H](O)[C@H]2O)[C@H]1O [AHB-dideoxyribostamycin]

>  <MIC>
0.78 µg/mL

$$$$
>  <molecule>
NCC[C@H](O)C(=O)N[C@@H]1C[C@H](N)[C@@H](O[C@H]2O[C@H](CN)CC[C@H]2N)[C@H](O)[C@H]1O [AHB-dideoxyneamine]

>  <MIC>
12.5 µg/mL

$$$$
